- System: K86415-001-R-J1-PDC complex spheroids, viability;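 further: spheroids exposed to agents for seven days before readout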
- Protocol: Anticancer human tumor K86415-001-R-J1-PDC patient-derived lung adenocarcinoma cell line growth inhibition [RAS]
- Measurement Conditions: curve of first compound; second compound 0.00316 µM
Consider the following compounds and their measured IC50 readings.
Measurement Type: IC50

{"Compound": "CC(C)n1nc(-c2ccc3oc(N)nc3c2)c2c(N)ncnc21 + C=CC(=O)N1CCN(c2nc(OCC3CCCN3C)nc3c(F)c(-c4nc(N)cc(C)c4C(F)(F)F)c(Cl)cc23)C(C)C1", "Measurement Type": "IC50", "Observed Result": "< 0.316 nM"}
{"Compound": "NC1c2ccccc2OC12CCN(c1cnc3c(N4CCCc5ncccc54)n[nH]c3n1)CC2 (stereo not drawn) + C=CC(=O)N1CCN(c2nc(OCC3CCCN3C)nc3c(F)c(-c4nc(N)cc(C)c4C(F)(F)F)c(Cl)cc23)C(C)C1", "Measurement Type": "IC50", "Observed Result": "< 31.6 nM"}
{"Compound": "C=CC(=O)Nc1cc(Nc2nccc(-c3cn(C)c4ccccc34)n2)c(OC)cc1N(C)CCN(C)C + C=CC(=O)N1CCN(c2nc(OCC3CCCN3C)nc3c(F)c(-c4nc(N)cc(C)c4C(F)(F)F)c(Cl)cc23)C(C)C1", "Measurement Type": "IC50", "Observed Result": "< 3.16 nM"}
{"Compound": "CC1(C)CCC(Nc2ncc(C(F)(F)F)c(-c3c[nH]c4c(P(C)(C)=O)c(C#N)ccc34)n2)CN1 (stereo not drawn) + C=CC(=O)N1CCN(c2nc(OCC3CCCN3C)nc3c(F)c(-c4nc(N)cc(C)c4C(F)(F)F)c(Cl)cc23)C(C)C1", "Measurement Type": "IC50", "Observed Result": "< 0.949 nM"}
{"Compound": "O=C(c1ccc(F)c(F)c1Nc1ccc(I)cc1F)N1CC(O)([C@@H]2CCCCN2)C1 + C=CC(=O)N1CCN(c2nc(OCC3CCCN3C)nc3c(F)c(-c4nc(N)cc(C)c4C(F)(F)F)c(Cl)cc23)C(C)C1", "Measurement Type": "IC50", "Observed Result": "< 3.16 nM"}
{"Compound": "CC(C)NCC(C(=O)N1CCN(c2ncnc3c2C(C)CC3O)CC1)c1ccc(Cl)cc1 (stereo not drawn) + C=CC(=O)N1CCN(c2nc(OCC3CCCN3C)nc3c(F)c(-c4nc(N)cc(C)c4C(F)(F)F)c(Cl)cc23)C(C)C1", "Measurement Type": "IC50", "Observed Result": "< 31.6 nM"}
{"Compound": "CC1(O)CCCC1n1c(=O)c(C(F)F)cc2cnc(NC3CCN(S(C)(=O)=O)CC3)nc21 (stereo not drawn) + C=CC(=O)N1CCN(c2nc(OCC3CCCN3C)nc3c(F)c(-c4nc(N)cc(C)c4C(F)(F)F)c(Cl)cc23)C(C)C1", "Measurement Type": "IC50", "Observed Result": "< 31.6 nM"}
{"Compound": "CC(=O)OC12COC1CC(O)C1(C)C(=O)C(O)C3=C(C)C(OC(=O)C(O)C(NC(=O)OC(C)(C)C)c4ccccc4)CC(O)(C(OC(=O)c4ccccc4)C21)C3(C)C (stereo not drawn) + C=CC(=O)N1CCN(c2nc(OCC3CCCN3C)nc3c(F)c(-c4nc(N)cc(C)c4C(F)(F)F)c(Cl)cc23)C(C)C1", "Measurement Type": "IC50", "Observed Result": "< 31.6 nM"}

These entries and their values trace back to PubChem BioAssay AID2060893.
